# measuredTarget: Cellular tumor antigen p53 (Homo sapiens) (UniProt P04637)
# Sequence (P04637 whole entry, looked up): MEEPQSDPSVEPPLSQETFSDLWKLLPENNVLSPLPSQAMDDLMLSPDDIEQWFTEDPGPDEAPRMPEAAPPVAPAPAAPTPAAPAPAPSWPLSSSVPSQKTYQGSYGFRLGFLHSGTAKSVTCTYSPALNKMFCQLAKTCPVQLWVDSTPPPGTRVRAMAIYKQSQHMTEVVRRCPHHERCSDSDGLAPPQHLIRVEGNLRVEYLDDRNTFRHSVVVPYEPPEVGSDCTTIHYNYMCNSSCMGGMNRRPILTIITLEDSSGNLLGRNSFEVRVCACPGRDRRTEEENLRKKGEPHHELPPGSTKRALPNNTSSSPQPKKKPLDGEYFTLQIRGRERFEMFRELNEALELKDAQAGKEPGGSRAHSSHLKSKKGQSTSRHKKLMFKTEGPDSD
# assayExplanation: TOX21_p53_BLA_p4_ratio: Tox21 HCT-116 p53 Agonism Beta-lactamase Assay, Ratio, Phase 4 (AID 2283601)
Results filed as inconclusive are left out. Activity calls are given as the source filed them. The calls were made as follows: active = hit-call score of the fitted dose curve at least 0.9, where 1 is the maximum; inconclusive = response in the unintended direction; inactive = score below 0.9.
attributeMeasured: AC50

>>> resultvalue("O=C(Nc1ccc(Cl)cc1)Nc1ccc(Cl)c(C(F)(F)F)c1")
"6.95 µM (active)"
>>> resultvalue("NC(N)=NCC1COC2(CCCCC2)O1 (configuration not stated)")
"inactive"
>>> resultvalue("CC(C)(O)C(=O)O")
"inactive"
>>> resultvalue("CC1CC(OC(=O)C(O)c2ccccc2)CC(C)(C)C1 (configuration not stated)")
"inactive"
>>> resultvalue("CO[Si](CCCNCCC[Si](OC)(OC)OC)(OC)OC")
"inactive"
>>> resultvalue("O=P(O)(O)C(O)(Cc1cccnc1)P(=O)(O)O")
"inactive"
>>> resultvalue("O[C@@H](c1cc(C(F)(F)F)nc2c(C(F)(F)F)cccc12)[C@H]1CCCCN1")
"39.6 µM (active)"
>>> resultvalue("Cc1c(Cn2ccnc2)c2ccccc2n1CCC(=O)O")
"inactive"
>>> resultvalue("COc1ccccc1OCC(O)CN1CCN(CC(=O)Nc2c(C)cccc2C)CC1 (configuration not stated)")
"inactive"
>>> resultvalue("CCc1ccc2c(c1)N(CC(C)CN(C)C)c1ccccc1S2 (configuration not stated)")
"inactive"
>>> resultvalue("Cc1ccc(-n2nc(C(C)(C)C)cc2NC(=O)Nc2ccc(OCCN3CCOCC3)c3ccccc23)cc1")
"inactive"
>>> resultvalue("O=C(Nc1ccc(Cl)c(Cl)c1)C1CC1")
"inactive"
